Give measured LD50 for each item. Keep answers brief.
testDetails: Toxicity in iv dosed C57BL/6 mouse assessed as lethal dose measured after 40 to 48 hrs
Type: organism-based
conditionSet: C57BL/6, mouse, in vivo, time 40-48 hrs
Please state the figure in mg/kg; there is no need to write the unit.

Input: For the compound shown here, C/C=C/C(=O)OCC(=O)N[C@H]1CCc2cc(OC)c(OC)c(OC)c2-c2ccc(C(=O)OC)cc21 , give the reported LD50.
Output: 6.5

Input: For the compound shown here, COc1cc2c(c(OC)c1OC)-c1ccc(OC)c(=O)cc1[C@@H](NC(C)=O)CC2 , give the reported LD50.
Output: 8.5

* * *

testDetails: Toxicity in iv dosed C57BL/6 mouse assessed as lethal dose measured after 24 hrs
Type: organism-based
conditionSet: C57BL/6, mouse, in vivo
measurementType: LD50 at 24 h (mg/kg)
Please state the figure in mg/kg; there is no need to write the unit.

Input: For the compound shown here, C/C=C/C=C/C(=O)OCC(=O)N[C@H]1CCc2cc(OC)c(OC)c(OC)c2-c2ccc(C(=O)OC)cc21 , give the reported LD50 at 24 h.
Output: 6.1
